Record form. Attribute: apparent KD of K4 kissing-loop reporter. Fill in for each entry.
- Test system: K4 kissing-loop RNA reporter;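 also: bound reporter read as fluorescence of individual clusters on recovered sequencing chips by microscopy, with normalized cluster intensities fitted with a binding model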
- assay.text: apparent KD of K4 kissing-loop reporter; higher = weaker reporter binding
- conditions: Eterna round: R107; input ligand: tryptophan 2.4 mM
Answers are plain numbers, in nM.

primary.sequence	system.name	meas.value
AAGUGAUGUUGUAGUGAUGUUGUGAUGUUGCAGGAUAUAUAGUGAUGUAGAAGGGUAAGUACUGUUUUUUUUUUUGAGUGAUGUU [ookooyzrmullin]	K4 kissing-loop RNA reporter	88.7
AAGAGCUAGGCGGCCGCCACUAGAUGUGAACACAUACAAACCAGUGAUGUUGGUAUGAUGGACAGUAGGACCGGGCCUAGCUGAA [Exclusion - Tryptophan B (Freestyle 10)]	K4 kissing-loop RNA reporter	995
AGCUGUGGCAGAAGGAGCGGCAGUUAUUCUGAUAGUACUCUGAGUGAUGUUCAGAACGACUGUCAGGUAGGUCGCUGUCACAGCU [#02 K4 Arginine B Exclusion]	K4 kissing-loop RNA reporter	218
AAAGAUCUUCUAGAAACUAGAAGAUCAAGAGAGGAUAUCCGAAUUCGGAGAAGGCUCACUAAGUGAUGUUUGGACCCAAAGGGAA [AK3 SS FMN A]	K4 kissing-loop RNA reporter	1030

Working through the 2 sequences below one at a time, give apparent KD of K4 kissing-loop reporter for each.
1. UUAGUCUAGAGAAGGAGCGCAGUGAUGUUGCGGUAUGUGAAAAUAUGUAUAUAAUAAUAAAUGCAGGUAGGUCGCUCUAGACAUU [AK2 Exc Arginine B]
2. GCUAUGGUAGGAAGGAGCGCGGACGAAAUUUAUCGAGUGAUGUUCGAAUAAUUAAAUAAAACGCAGGUAGGUCGCCUACUAUAGC [Arginine B K4 26]

A.
1. 54.3
2. 75.7

The measurements presented in this section are drawn from the supplement of paper PMC9170038.
